Measured self-cleavage, listed per entry for reference.
B1: OR4K15 (parent)
chain: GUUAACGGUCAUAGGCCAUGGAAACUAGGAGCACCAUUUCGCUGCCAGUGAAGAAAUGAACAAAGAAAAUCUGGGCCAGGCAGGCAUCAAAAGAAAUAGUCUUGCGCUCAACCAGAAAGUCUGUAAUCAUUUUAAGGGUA

# Variants of: B1
# MEASUREMENT_PROTOCOL: self-cleavage, relative activity (ratio to wild type); higher = more cleavage; in vitro, sequencing; the parent is a self-cleaving ribozyme
Note: the reply should be a number with no unit written.

Check out these entries, answers already filled in.
RESIDUE_CHANGE | self-cleavage
U87C A126G | 0.82
U100A U122C | 0.28

Endpoint output: self-cleavage of G7U A67G . Value?
1.28

Endpoint output: self-cleavage of U3A U103C . Value?
0.76

Endpoint output: self-cleavage of A63U U103A . Value?
0.49

Endpoint output: self-cleavage of A11C A69G . Value?
1.7

Endpoint output: self-cleavage of A47C U120C . Value?
1

Endpoint output: self-cleavage of U72C C128A . Value?
0.13

Endpoint output: self-cleavage of A33G A56C . Value?
0.41

Endpoint output: self-cleavage of U49A A129G . Value?
0.63

Endpoint output: self-cleavage of A36G A134U . Value?
1.6

Endpoint output: self-cleavage of A13G A98U . Value?
1.29

Endpoint output: self-cleavage of C35U U108A . Value?
0.02

Endpoint output: self-cleavage of C46U A86G . Value?
1.41

Endpoint output: self-cleavage of G20U A94U . Value?
2.23

Endpoint output: self-cleavage of U87C A95C . Value?
0.32

Endpoint output: self-cleavage of G7A U37C . Value?
2.58
